- measured_on: LSD1 (Homo sapiens (Human))
- procedure_details: LSD1 enzyme activity detection (HTRF)
- Assay type: biochemical
- protocol_conditions: HTRF, H3K4me1 substrate; read-out: Inhibition of enzymatic activity of LSD1 IC50
pIC50: −log10 of the molar value. Structures can show the parent of a compound that is named as a salt.

[
  {
    "compound": "COCCNC1CCN(c2cc(O)c(-c3ccc(OC)c(F)c3)c(-c3ccc(C#N)c(F)c3)n2)CC1 [Example 49]",
    "pIC50": 7.21
  },
  {
    "compound": "CNC1CCN(c2ncc(-c3ccc(OC)c(O)c3)c(-c3ccc(C#N)c(F)c3)c2C#N)CC1 [Example 79, hydrochloride]",
    "pIC50": 9.52
  },
  {
    "compound": "COc1ccc(-c2c(-c3ccc(C#N)c(F)c3)nc(N3CCC(N)CC3)n3ccnc23)cn1 [Example 121]",
    "pIC50": 8.50
  },
  {
    "compound": "N#Cc1ccc(-c2nc(N3CCC(N)CC3)n3ccnc3c2-c2ccc3oc(=O)[nH]c3c2)cc1F [Example 129]",
    "pIC50": 9.21
  },
  {
    "compound": "Cc1noc2cc(-c3sc(C(=O)N4C5CCC4CC(N)C5)cc3-c3cccnc3)c(F)cc12 (centres unmarked) [Example 208, hydrochloride]",
    "pIC50": 6.19
  },
  {
    "compound": "Cc1ccc(-c2c(-c3ccc(C#N)cc3)cc3c(N4CCN(C)CC4)nccn23)cc1 [Example 190]",
    "pIC50": 9.48
  },
  {
    "compound": "COc1ccc(-c2c(O)cc(N3CCC(N)CC3)nc2-c2ccc(C#N)c(F)c2)c(F)c1F [Example 35]",
    "pIC50": 7.45
  },
  {
    "compound": "CN(CCCN)c1nc(-c2ccc(C#N)c(F)c2)c(-c2ccc(F)c(O)c2)c2nccn12 [Example 148]",
    "pIC50": 8.16
  }
]
